These measurements were taken from patent US4091114A.

- Tested on: mice
- Condition set: mouse, in vivo, ip
Readout kind: LD50

CN(C)CCC=C1c2ccccc2CCc2ccccc21: 65 mg/kg
